Values from the supplement of paper PMC5998384

Test system: HeLa Kyoto;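 note: HeLa Kyoto cells arrested at G1/S by double thymidine block, proteins quantified by TMT10plex mass spectrometry in mild NP-40 versus SDS extracts, three biological replicates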
Test: solubility in G1/S (NP-40 vs SDS abundance) (log2 ratio); higher = more soluble
Details: cell cycle stage: G1/S

{"columns": ["seqString", "solubility in G1/S (log2)"],
 "data": [
  ["MEDSGKTFSSEEEEANYWKDLAMTYKQRAENTQEELREFQEGSREYEAELETQLQQIETRNRDLLSENNRLRMELETIKEKFEVQHSEGYRQISALEDDLAQTKAIKDQLQKYIRELEQANDDLERAKRATIMSLEDFEQRLNQAIERNAFLESELDEKENLLESVQRLKDEARDLRQELAVQQKQEKPRTPMPSSVEAERTDTAVQATGSVPSTPIAHRGPSSSLNTPGSFRRGLDDSTGGTPLTPAARISALNIVGDLLRKVGALESKLASCRNLVYDQSPNRTGGPASGRSSKNRDGGERRPSSTSVPLGDKGLDTSCRWLSKSTTRSSSSC [NDE1]", 0.236],
  ["MAALGVLESDLPSAVTLLKNLQEQVMAVTAQVKSLTQKVQAGAYPTEKGLSFLEVKDQLLLMYLMDLTHLILDKASGGSLQGHDAVLRLVEIRTVLEKLRPLDQKLKYQIDKLIKTAVTGSLSENDPLRFKPHPSNMMSKLSSEDEEEDEAEDDQSEASGKKSVKGVSKKYVPPRLVPVHYDETEAEREKKRLERAKRRALSSSVIRELKEQYSDAPEEIRDARHPHVTRQSQEDQHRINYEESMMVRLSVSKREKGRRKRANVMSSQLHSLTHFSDISALTGGTVHLDEDQNPIKKRKKIPQKGRKKKGFRRRR [NGDN]", -1.83],
  ["MADKPDMGEIASFDKAKLKKTETQEKNTLPTKETIEQEKRSEIS [TMSB10]", -1.37]
]}
